Tested on: Trypanosoma brucei rhodesiense
assay.text: Antiparasitic activity against Trypanosoma brucei rhodesiense STIB900 bloodstream forms assessed as reduction in cell viability after 70 hrs by alamar blue assay
Assay type: functional, organism-based
applied.conditions: Trypanosoma brucei, STIB900, 70 h; read-out: IC50
pIC50: −log10 of the molar value.
property.name: pIC50

Qu. Entry under review: NCCCC(N)(C(=O)O)C(F)F (stereo not drawn) [EFLORNITHINE] . Reported pIC50?
Ans. 5.42

(a) CSc1ccc(OCc2ncc([N+](=O)[O-])n2C)cc1 [FEXINIDAZOLE]
(b) O=[N+]([O-])c1cn(-c2ccc3c(c2)OCO3)cn1
Qu. pIC50 comparison. Which is larger, a or b ? Respond using the label that marks the chosen record.
Ans. b
